assay: NCI Yeast Anticancer Drug Screen. Data for the mec2-1 strain (AID 157); details: S. cerevisiae mec2-1 strain, at 50.0 µM
About 79,000 compounds went through this panel and 15% of them were active in at least one assay; those are over-represented in the sample as a whole. Calls of active or inactive are those of the source. Rule as the data show it: active = growth inhibition above about 70%; inactive = the rest.
Give one outcome, nothing more. List: YES (active), NO (inactive)

stdin: What did the test return for c1ccc(CNC(c2ccccc2)C(NCc2ccccc2)c2ccccc2)cc1 (configuration not stated) ?
stdout: NO

stdin: Record: OC(c1cc(C2CCCCC2)nc2ccccc12)C1CCCCN1 (configuration not stated)
stdout: NO

stdin: Record: `O=Cc1ccc(C(=O)O)cc1`
stdout: NO

stdin: Record: `CCCCCCCC/C=C\CCCCCCCC(=O)NCCN(CC)CC`
stdout: YES

stdin: Record: `Cc1cc2nc(NN)[nH]c2cc1C`
stdout: NO

stdin: Record: `C(=C\c1cc(-c2cc(/C=C/c3ccccc3)[nH]n2)n[nH]1)/c1ccccc1`
stdout: NO

stdin: Record: `C1CSC(SCCCSC2SCCCS2)SC1`
stdout: NO

----------
Experiment: NCI Yeast Anticancer Drug Screen. Data for the sgs1 mgt1 strain (AID 161);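 also: 0% = growth of cultures given vehicle only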
Settings: S. cerevisiae sgs1 mgt1 strain, at 50.0 µM, hits give high values
Description: Growth inhibition of yeast strains with defined genetic alterations is measured as a screen for potential anti-cancer activity. Selected strains with alterations in DNA damage repair or cell cycle control were exposed to compounds and growth inhibition was measured relative to vehicle treated controls. The strain used in this assay is sgs1 mgt1
Compounds without any hit were thinned out: in the full panel of roughly 79,000, 15% have a hit.
Property: growth inhibition (%)
Give your result in % as a bare value.

stdin: What does the record list as growth inhibition for NC(=O)c1csc(C2OC(CO)CC2O)n1 (centres undefined) ?
stdout: -2.45

stdin: Record: `N=c1oc2ccc([N+](=O)[O-])cc2cc1C(=O)NCc1ccccc1`
stdout: -13.9

stdin: Record: COc1ccccc1N(CN1C(=O)CCC1C(=O)O)C(C)=O (centres undefined)
stdout: -4

stdin: Record: `CN(/N=C/c1ccccn1)C1=NCCCN1`
stdout: -23

stdin: Record: `COC(=O)Nc1nc2ccc(-n3c(C)nc4ccccc4c3=O)cc2[nH]1`
stdout: 6.35

stdin: Record: O=C1OC(c2ccc(Cl)c3ccccc23)c2ccccc21 (centres undefined)
stdout: 34.4

stdin: Record: `O=C(O)c1ccc(NC(=S)NC(=O)c2cccc([N+](=O)[O-])c2)cc1`
stdout: 16

stdin: Record: CC(C(=O)n1c2ccccc2c2ccccc21)N(c1ccccc1)c1ccccc1 (centres undefined)
stdout: -30.2

stdin: Record: `CC(=O)NNc1nc(C)c(C(=O)NNC(=O)C(=O)Nc2c(C)cccc2C(C)(C)C)s1`
stdout: 13.2

stdin: Record: `CCCCOC(=O)c1ccc(NC(=O)Nc2ccc([N+](=O)[O-])cc2OC)cc1`
stdout: -17.6

stdin: Record: N#C/C(=C1\SC(N=Nc2ccc(Cl)cc2)C(=O)N1c1ccccc1)c1nc2ccccc2[nH]1 (centres undefined)
stdout: 6.75

stdin: Record: `O=C1c2ccccc2C(=O)N1C1CCCCC1`
stdout: 22.4

stdin: Record: c1ccc(CNC(c2ccccc2)C(NCc2ccccc2)c2ccccc2)cc1 (centres undefined)
stdout: -14.3

stdin: Record: `Cc1cccc2c(C(=O)O)c3cccc(C)c3nc12`
stdout: 8.35

stdin: Record: O=C1N2Cc3c4ccc5c3CN3C(=O)N6Cc7c(ccc(c7CN1C6(c1ccccc1)C23c1ccccc1)OCCOCCNCCOCCO4)OCCOCCNCCOCCO5 (centres undefined)
stdout: -34.2

stdin: Record: COc1nc(NC2OC(CO)C(O)C(O)C2O)cc(=O)[nH]1 (centres undefined)
stdout: 1.45

stdin: Record: CC1CCCCC1(C)O (centres undefined)
stdout: -19.4

stdin: Record: `CCOC(=O)CCCN1CCC=C(C#N)C1`
stdout: 6.7

stdin: Record: `O=C(N=C1SCCN1C(=O)C(C(F)(F)F)C(F)(F)F)C(C(F)(F)F)C(F)(F)F`
stdout: 4.95

stdin: Record: CCC(c1ccc(C(C)=O)c(O)c1)C(CC)c1ccc(C(C)=O)c(O)c1 (centres undefined)
stdout: 22.6

stdin: Record: CC(Cc1ccccc1)NC(=O)c1ccncc1 (centres undefined)
stdout: -5.4

stdin: Record: `COc1cc(CC2C(=O)NC(=O)NC2=O)ccc1OCc1ccccc1`
stdout: -5.1

stdin: Record: CC(NC(=O)C(CSCc1ccccc1)NC(=O)OCc1ccccc1)C(=O)OCc1ccccc1 (centres undefined)
stdout: -11.2

stdin: Record: `CN(C)c1ccc([N+](=O)[O-])cc1`
stdout: -61.6

stdin: Record: CC1Cc2ccc(OCC(O)CO)cc2C1=O (centres undefined)
stdout: 11.1

stdin: Record: `CCOC(=O)c1ccc(N=Nc2c(N)nc(N)nc2N)cc1`
stdout: -1.7

stdin: Record: `COc1cc(CNC(=O)CCCCCCCCCCSSCCCCCCCCCCC(=O)NCc2ccc(O)c(OC)c2)ccc1O`
stdout: -22.9

stdin: Record: `O=C(NCCCCCCCCCNC(=O)C12CC3CC(CC(C3)C1)C2)C12CC3CC(CC(C3)C1)C2`
stdout: 21.7

stdin: Record: COc1cc2c(cc1OC)C(C(=O)O)C(c1ccccc1)N(C)C2=O (centres undefined)
stdout: -6.5

stdin: Record: NC(=O)C1=CC2C3C=CC2(O)C(=O)OC3O1 (centres undefined)
stdout: -12.6

stdin: Record: `CC[N+](C)(CC)Cc1ccc([NH-])c([NH-])c1.[Cl][Pt+2][Cl]`
stdout: 36

stdin: Record: `CCn1c2ccccc2c2ccc(N=Cc3ccc4ccccc4c3)cc21`
stdout: -7.3

stdin: Record: `c1cc2cc(C3=NCCN3)[nH]c2cc1C1=NCCN1`
stdout: 29.1

stdin: Record: O=C(CC(=O)Nc1ccccc1)NNC(Sc1ccccc1)c1cc(N=Nc2ccc(Br)cc2)ccc1O (centres undefined)
stdout: 11.2

----------
assay: NCI Yeast Anticancer Drug Screen. Data for the mlh1 rad18 strain (AID 175); conditions: S. cerevisiae mlh1 rad18 strain growth inhibition; at 50.0 µM; hits give high values
Compounds without any hit were thinned out: in the full panel of roughly 79,000, 15% have a hit.
Property: growth inhibition (%)
Give your result in % as a bare value.

stdin: What does the record list as growth inhibition for C=CCC1C(=O)NN=C1C (stereo not drawn) ?
stdout: 2.45

stdin: Record: `CCC(CC)=NNS(=O)(=O)c1cccc2ccccc12`
stdout: -0.1

stdin: Record: COc1nc2c(c(O)cn2C2OCC(OC(C)=O)C(OC(C)=O)C2OC(C)=O)c(=O)n1C (stereo not drawn)
stdout: 15.8

stdin: Record: COc1cc(C(=O)O[C@H]2CCC3CCC2N3C)cc(OC)c1OC (stereo partly drawn)
stdout: -47

stdin: Record: Cc1ccc([B-]23OCC[N+]2(CNC(=O)c2ccccc2O)CCO3)cc1 (stereo not drawn)
stdout: 12.8

stdin: Record: `O=C(O)CS(=O)(=O)c1nc2ccccc2[nH]1`
stdout: -14.8

stdin: Record: `CC(C)(c1ccccc1)[Si](c1ccccc1)(c1ccccc1)c1ccccc1`
stdout: 0.65

stdin: Record: `C[Si](C)(C)O[Si](C)(C)CCl`
stdout: -34.2

----------
Test: NCI Yeast Anticancer Drug Screen. Data for the rad50 strain (AID 155);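 also: 0% = growth of vehicle-only cultures of the same strain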
Conditions: S. cerevisiae rad50 strain growth inhibition; at 50.0 µM; hits give high values
Description: Growth inhibition of yeast strains with defined genetic alterations is measured as a screen for potential anti-cancer activity. Selected strains with alterations in DNA damage repair or cell cycle control were exposed to compounds and growth inhibition was measured relative to vehicle treated controls. The strain used in this assay is rad50
Compounds without any hit were thinned out: in the full panel of roughly 79,000, 15% have a hit.
Property: growth inhibition (%)
Give your result in % as a bare value.

stdin: What does the record list as growth inhibition for `c1ccc2c(c1)NC(N1CCCCC1)=Nc1ncncc1-2` ?
stdout: 14.8

stdin: Record: `COc1ccccc1C1C(C(=O)Nc2ccccc2)=C(C)NC(C)=C1C(=O)Nc1ccccc1`
stdout: -3.2

stdin: Record: CCOC(=O)C(C#N)C1CCCC(C)CC1 (centres undefined)
stdout: 13

stdin: Record: `CN(C)c1ccc(/C=c2\sc3nc4ccccc4n3c2=O)cc1`
stdout: -8.75

stdin: Record: `CCOC(=O)[C@H](Cc1ccccc1)NC(=O)c1nc[nH]c1[N+](=O)[O-]`
stdout: -10.1

stdin: Record: `O=[N+]([O-])c1ccc(Sc2c3ccccc3nc3cc(Cl)ccc23)cc1`
stdout: -32.2

stdin: Record: `c1cc(CNCCN2CCNCC2)ccn1`
stdout: 7.45

stdin: Record: `CC(=O)Nc1ccc(S(=O)(=O)/C(=C\c2ccc(Cl)o2)c2ccc([N+](=O)[O-])o2)cc1`
stdout: 90.1

stdin: Record: COc1ccc(N)c(C(O)CCNC(C)=O)c1 (centres undefined)
stdout: -20.1

stdin: Record: `Cc1ccc(-c2cc(=S)n(-c3ccccc3)c3nc(=S)n(-c4ccccc4)c(N)c23)cc1`
stdout: 14.4

stdin: Record: `OCCOCC#CCOCCO`
stdout: 3.9

stdin: Record: `Cc1cc2oc(C)c(S(=O)(=O)NC(=O)Nc3ccc(Cl)cc3)c(=O)c2c(=O)o1`
stdout: -2.85

stdin: Record: CC(=O)OC1C(=O)OCC23CCC(C)=CC2OC2CC(OC(=O)/C=C/C=C/C(=O)OCCC1C)C3(C)C21CO1 (centres undefined)
stdout: -35.5

stdin: Record: `Cc1nc2c(=O)n(C)c(=O)n(C)c2nc1CCC(=O)O`
stdout: -16.1

stdin: Record: CC(C)COC1CN=NN1/C=C1\CCOC1=O (centres undefined)
stdout: -4.2

stdin: Record: `CC1=CC(=O)N2CCN=C2S1`
stdout: -7.05

stdin: Record: `COc1cc(C2c3c(oc4ccccc4c3=O)Oc3oc4ccccc4c(=O)c32)cc(OC)c1O`
stdout: -17.4

stdin: Record: `CC(=O)CCCCCCCCCCCCCC(C)=O`
stdout: -18.1

stdin: Record: CCOc1ccc(C2OCC(C)O2)cc1OC (centres undefined)
stdout: 13.2
